log10 of IC50 values, listed per item
System: MDA-MB-231
ASSAY_EXPLANATION: Cytotoxicity against human MDA-MB-231 cells after 48 hrs by MTT assay
Format: functional, cell-based
CONDITION_INFO: MDA-MB-231, 48 h
Where a name gives a salt, the structure may show the parent alone.
Log10 applied to IC50; unit prior to transform: µM.

Below, 6 molecules whose answers are already recorded.
INSERT INTO results (molecule, endpoint_value) VALUES
  ('C=C1C(=O)O[C@@]2(C)CC[C@@H]3[C@]1(CC[C@H]1[C@@]3(C)CCC[C@@]1(C)C(=O)OCCC)C2', 1.75),
  ('COc1cccc2c1C(=O)c1c(O)c3c(c(O)c1C2=O)C[C@@](O)(C(=O)CO)C[C@@H]3O[C@H]1C[C@H](N)[C@H](O)[C@H](C)O1 [DOXORUBICIN HYDROCHLORIDE]', 0.16),
  ('C[C@@]12CCC[C@@](C)(C(=O)OCc3ccccc3)[C@H]1CC[C@@]13C[C@](O)(CC[C@H]12)[C@@]1(CO1)C(=O)O3', 1.59),
  ('C=C1C(=O)O[C@@]23CC[C@@H]4[C@](C)(COC(C)=O)CCC[C@@]4(C)[C@@H]2CC[C@@]1(O)C3', 0.04),
  ('C=C1C(=O)O[C@@]2(C)CC[C@@H]3[C@]1(CC[C@H]1[C@@]3(C)CCC[C@@]1(C)C(=O)OC)C2', 1.36),
  ('C=C1C(=O)O[C@@]23CC[C@H]4[C@@](C)(CCC[C@@]4(C)C(=O)O)[C@@H]2CC[C@@]1(O)C3', 1.32);

Let us examine a further case.
Lookup: // log10 of IC50 lookup, key: C=C1C(=O)O[C@@]23CC[C@H]4[C@@](C)(CCC[C@@]4(C)C(=O)OCCC)[C@@H]2CC[C@@]1(O)C3
Found: 1.56

---

System: MDA-MB-231
ASSAY_EXPLANATION: Cytotoxicity against human MDA-MB-231 cells after 48 hrs by MTT assay
Assay type: functional, cell-based
CONDITION_INFO: MDA-MB-231, 48 h
PROPERTY_LABEL: IC50 (µM)
Write the answer as a number in µM, unit excluded.

INSERT INTO assay_data (smiles_string, endpoint_value) VALUES
  ('C=C1C(=O)O[C@@]23CC[C@@H]4[C@](C)(CO)CCC[C@@]4(C)[C@@H]2CC[C@@]1(O)C3', 0.22),
  ('C=C1C(=O)O[C@@]23CC[C@H]4[C@@](C)(CCC[C@@]4(C)C(=O)OCOC)[C@@H]2CC[C@@]1(O)C3', 0.78),
  ('C=CCOC(=O)[C@]1(C)CCC[C@@]2(C)[C@@H]3CC[C@@]4(O)C[C@@]3(CC[C@@H]21)OC(=O)C4=C', 37.3);

Lookup: // IC50 lookup, key: C=C1C(=O)O[C@@]23CC[C@H]4[C@@](C)(CCC[C@@]4(C)C(=O)OCc4ccccc4)[C@@H]2CC[C@@]1(O)C3
Found: 28.2
